Target sequence: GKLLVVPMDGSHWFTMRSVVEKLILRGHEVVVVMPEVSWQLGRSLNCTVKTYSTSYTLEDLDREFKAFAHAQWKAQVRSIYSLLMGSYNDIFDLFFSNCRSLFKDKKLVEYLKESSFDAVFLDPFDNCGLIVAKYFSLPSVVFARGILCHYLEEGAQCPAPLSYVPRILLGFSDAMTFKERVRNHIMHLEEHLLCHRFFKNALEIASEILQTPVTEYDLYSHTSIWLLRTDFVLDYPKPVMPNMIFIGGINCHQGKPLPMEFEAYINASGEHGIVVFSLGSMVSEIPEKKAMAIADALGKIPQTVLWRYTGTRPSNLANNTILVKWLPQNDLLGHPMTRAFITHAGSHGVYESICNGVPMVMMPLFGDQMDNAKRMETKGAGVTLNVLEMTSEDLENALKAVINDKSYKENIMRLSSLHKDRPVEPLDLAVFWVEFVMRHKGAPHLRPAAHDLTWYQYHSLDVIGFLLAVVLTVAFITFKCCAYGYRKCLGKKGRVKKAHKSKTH
observation type: Ki (nM)
Your answer should be a plain number; it is taken to be in nM.

Tell me its Ki given CC(=O)N1CCN(c2ccc(OCC3COC(Cn4ccnc4)(c4ccc(Cl)cc4Cl)O3)cc2)CC1 (stereo not shown) [ketoconazole, reference compound] as the entry. 2200
